The measured values listed here are drawn from the NIST ThermoML archive (doi:10.1021/je050402s).

ASSAY METHOD TEXT: xn = mol fraction of the nth substance listed
STATED CONDITIONS: 308.15 K; 100.5 kPa; Liquid; Capillary tube (Ostwald / Ubbelohde) method; x1 = 0.05
Note to self: viscosity under 0.9 mPa·s means true, ties and anything higher get false.

COMPOUND	CATEGORY
CCOC(=O)CC(C)=O [ethyl 3-oxobutanoate] + CCO	true
CCOC(=O)CC(C)C [ethyl 3-methylbutanoate] + CCO	true
CCC(=O)OCc1ccccc1 [benzyl propanoate] + CCO	false

----------
ASSAY METHOD TEXT: xn = mol fraction of the nth substance listed
STATED CONDITIONS: 308.15 K; 100.5 kPa; Liquid; x1 = 0.55
# binarize mass density: threshold 1000 kg/m3 inclusive, high side 1.0, low side 0.0

COMPOUND	CATEGORY
CCOC(=O)c1ccccc1O [ethyl 2-hydroxybenzoate] + CCO	1.0
CCOC(=O)CC(C)=O [ethyl 3-oxobutanoate] + CCO	0.0
CCC(=O)OCc1ccccc1 [benzyl propanoate] + CCO	0.0
CCOC(=O)CC(C)C [ethyl 3-methylbutanoate] + CCO	0.0
